These data points were gathered from patent US20250282874A1.

- system tested: T1, human PD-L1-Fc (human, UniProt Q9NZQ7 19-239)
- T1 construct: also called hPD-L1-Fc; human PD-L1-Fc (Sino Biological, 70110-D02H); not shown: Fc part
- T1 sequence (Q9NZQ7 19-239 limits assumed): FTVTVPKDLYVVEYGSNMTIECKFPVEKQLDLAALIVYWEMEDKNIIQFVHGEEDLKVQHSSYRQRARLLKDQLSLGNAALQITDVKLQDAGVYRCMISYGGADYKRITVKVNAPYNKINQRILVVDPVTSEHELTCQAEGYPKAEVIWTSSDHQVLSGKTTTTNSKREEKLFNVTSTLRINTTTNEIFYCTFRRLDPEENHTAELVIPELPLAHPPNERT
- method notes: BLI; PD-L1-Fc loaded on the sensor, scFv in solution
Reported log10 Kd values for the following binders.
test readout: log10 Kd (log10 of the value in nM)

binder	test readout	readout value
4B6 scFv variant H-CDR2-4 (scFv, also called 4B6-H-CDR2-4) scFv: DIQMTQSPSSLSASVGDRVTITCKASQNVGAAVAWYQQKPGKAPKLLIYSASNRYTGVPSRFSGSGSGTDFTLTISSLQPEDIATYYCQQYSNYPTFGQGTKLEIKGGGGSGGGGSGGGGSQVQLVQSGAEVKKPGASVKVSCKASGYVFTDYYMNWVRQAPGQSLEWMGDINPNNGLTSYNHKFKGRVTVTVDKSISTAYMELSRLRSDDTAVYYCVKWGDGPFAYWGQGTLVTVSS	log10 Kd	0.65
4B6 scFv variant H-CDR2-2 (scFv, also called 4B6-H-CDR2-2) scFv: DIQMTQSPSSLSASVGDRVTITCKASQNVGAAVAWYQQKPGKAPKLLIYSASNRYTGVPSRFSGSGSGTDFTLTISSLQPEDIATYYCQQYSNYPTFGQGTKLEIKGGGGSGGGGSGGGGSQVQLVQSGAEVKKPGASVKVSCKASGYVFTDYYMNWVRQAPGQSLEWMGDINPNNAQTQYNHKFKGRVTVTVDKSISTAYMELSRLRSDDTAVYYCVKWGDGPFAYWGQGTLVTVSS	log10 Kd	0.38
4B6-HgLa scFv (wild-type sequence for affinity maturation) (scFv, written VL-linker-VH; also called L-CDR1-WT; L-CDR2-WT) scFv: DIQMTQSPSSLSASVGDRVTITCKASQNVGAAVAWYQQKPGKAPKLLIYSASNRYTGVPSRFSGSGSGTDFTLTISSLQPEDIATYYCQQYSNYPTFGQGTKLEIKGGGGSGGGGSGGGGSQVQLVQSGAEVKKPGASVKVSCKASGYVFTDYYMNWVRQAPGQSLEWMGDINPNNAGTSYNHKFKGRVTVTVDKSISTAYMELSRLRSDDTAVYYCVKWGDGPFAYWGQGTLVTVSS	log10 Kd	1.43
4B6 scFv variant H-CDR2-1 (scFv, also called 4B6-H-CDR2-1) scFv: DIQMTQSPSSLSASVGDRVTITCKASQNVGAAVAWYQQKPGKAPKLLIYSASNRYTGVPSRFSGSGSGTDFTLTISSLQPEDIATYYCQQYSNYPTFGQGTKLEIKGGGGSGGGGSGGGGSQVQLVQSGAEVKKPGASVKVSCKASGYVFTDYYMNWVRQAPGQSLEWMGDINPNNADTMYNHKFKGRVTVTVDKSISTAYMELSRLRSDDTAVYYCVKWGDGPFAYWGQGTLVTVSS	log10 Kd	0.55
4B6 scFv variant H-CDR2-5 (scFv, also called 4B6-H-CDR2-5) scFv: DIQMTQSPSSLSASVGDRVTITCKASQNVGAAVAWYQQKPGKAPKLLIYSASNRYTGVPSRFSGSGSGTDFTLTISSLQPEDIATYYCQQYSNYPTFGQGTKLEIKGGGGSGGGGSGGGGSQVQLVQSGAEVKKPGASVKVSCKASGYVFTDYYMNWVRQAPGQSLEWMGDINPNNAQTVYNHKFKGRVTVTVDKSISTAYMELSRLRSDDTAVYYCVKWGDGPFAYWGQGTLVTVSS	log10 Kd	0.38
4B6 scFv variant H-CDR2-3 (scFv, also called 4B6-H-CDR2-3) scFv: DIQMTQSPSSLSASVGDRVTITCKASQNVGAAVAWYQQKPGKAPKLLIYSASNRYTGVPSRFSGSGSGTDFTLTISSLQPEDIATYYCQQYSNYPTFGQGTKLEIKGGGGSGGGGSGGGGSQVQLVQSGAEVKKPGASVKVSCKASGYVFTDYYMNWVRQAPGQSLEWMGDINPNNAETLYNHKFKGRVTVTVDKSISTAYMELSRLRSDDTAVYYCVKWGDGPFAYWGQGTLVTVSS	log10 Kd	0.39
